Target: T1, IFN-γ receptor (IFNGR; IFNGR1 and IFNGR2) on human cells (human, UniProt P15260 18-489; P38484 22-337)
T1 sequence (looked up) 1: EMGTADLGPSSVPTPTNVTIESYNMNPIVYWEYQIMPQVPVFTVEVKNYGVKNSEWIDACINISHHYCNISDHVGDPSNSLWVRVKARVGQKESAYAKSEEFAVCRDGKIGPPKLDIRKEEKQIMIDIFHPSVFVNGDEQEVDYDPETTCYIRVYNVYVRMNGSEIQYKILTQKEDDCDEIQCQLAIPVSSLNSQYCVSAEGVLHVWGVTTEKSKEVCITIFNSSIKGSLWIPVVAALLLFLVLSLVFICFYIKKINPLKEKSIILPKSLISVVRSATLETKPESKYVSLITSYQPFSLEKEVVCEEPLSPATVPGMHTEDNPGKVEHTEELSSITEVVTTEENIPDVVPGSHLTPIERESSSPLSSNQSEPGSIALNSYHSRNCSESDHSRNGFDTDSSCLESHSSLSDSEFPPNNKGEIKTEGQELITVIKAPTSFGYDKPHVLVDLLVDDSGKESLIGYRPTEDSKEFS
T1 sequence (looked up) 2: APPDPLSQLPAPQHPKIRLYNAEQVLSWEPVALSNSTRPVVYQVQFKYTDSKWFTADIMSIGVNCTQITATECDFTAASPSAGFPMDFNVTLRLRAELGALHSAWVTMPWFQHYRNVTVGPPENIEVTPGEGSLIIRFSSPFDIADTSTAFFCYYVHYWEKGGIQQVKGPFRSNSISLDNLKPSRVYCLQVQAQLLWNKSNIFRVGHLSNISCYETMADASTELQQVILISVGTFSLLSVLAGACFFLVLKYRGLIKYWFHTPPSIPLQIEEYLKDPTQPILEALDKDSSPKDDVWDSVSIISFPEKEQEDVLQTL
Experiment: cell-based or functional assay
reported.endpoint: EC50 (ng/mL)-% pSTAT1, CD14+CD16- (Classical) monocytes of human PBMCs

binder	experimental.result
Compound 3, mono-mPEG2-ru-MAL-20K-rhIFN-γ-1b-M135C (ring closed) (ligand, Cys135 thioether-linked to branched mPEG2-maleimide of about 20,000 daltons (mPEG2-MAL-20K), succinimide ring closed, also called mPEG2-MAL-20K-M135C-IFN-γ; M135C 20K branched (RC)) MQDPYVKEAENLKKYFNAGHSDVADNGTLFLGILKNWKEESDRKIMQSQIVSFYFKLFKNFKDDQSIQKSVETIKEDMNVKFFNSNKKKRDDFEKLTNYSVTDLNVQRKAIHELIQVMAELSPAAKTGKRKRSQCLFRGR	14
Compound 1, mono-mPEG-MAL-10K-rhIFN-γ-1b-M135C (ligand, Cys135 thioether-linked to linear mPEG-maleimide of about 10,000 daltons (mPEG-MAL-10K), succinimide ring closed, also called mPEG-MAL-10K-M135C-IFN-γ; M135C 10K linear) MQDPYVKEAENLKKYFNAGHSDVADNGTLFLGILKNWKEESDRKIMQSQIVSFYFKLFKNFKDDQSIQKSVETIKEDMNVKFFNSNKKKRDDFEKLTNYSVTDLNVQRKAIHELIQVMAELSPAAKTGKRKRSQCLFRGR	0.222
rhIFN-γ-1b (wild-type recombinant human interferon-γ-1b) (ligand, also called wt (rhIFN-γ-1b); WT IFN-γ-1b (Actimmune)) MQDPYVKEAENLKKYFNAGHSDVADNGTLFLGILKNWKEESDRKIMQSQIVSFYFKLFKNFKDDQSIQKSVETIKEDMNVKFFNSNKKKRDDFEKLTNYSVTDLNVQRKAIHELIQVMAELSPAAKTGKRKRSQMLFRGR	0.035
Compound 2, mono-mPEG-MAL-20K-rhIFN-γ-1b-M135C (ligand, Cys135 thioether-linked to linear mPEG-maleimide of about 20,000 daltons (mPEG-MAL-20K), succinimide ring closed, also called mPEG-MAL-20K-M135C-IFN-γ; M135C 20K linear) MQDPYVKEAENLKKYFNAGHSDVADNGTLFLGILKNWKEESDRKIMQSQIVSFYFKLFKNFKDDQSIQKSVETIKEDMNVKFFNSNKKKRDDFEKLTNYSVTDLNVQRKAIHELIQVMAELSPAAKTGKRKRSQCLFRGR	1.45
